# TESTED_SYSTEM: human FPR2 (Homo sapiens)
# RUN_DESCRIPTION: FPR2 cyclic adenosine monophosphate (cAMP) assay
# RECORDED_CONDITIONS: CHO cells overexpressing human FPR2; forskolin 5 μM; inhibition of cAMP production; HTRF; read-out: hFPR2 cAMP2 EC50
# Procedure: N-formyl peptide receptors (FPRs) are a family of chemo attractant receptors that facilitate leukocyte response during inflammation. FPRs belong to the seven-transmembrane G protein-coupled receptor superfamily and are linked to inhibitory G-proteins (Gi). […] FPR2 and FPR1 Cyclic Adenosine Monophosphate (cAMP) Assays. […] The level of intracellular cAMP was determined using the HTRF HiRange cAMP assay reagent kit (Cisbio) according to manufacturer's instruction. […]
pEC50: −log10 of the molar value.
REPORTED_METRIC: pEC50

I = COc1cc(OC(CO)C(F)(F)F)nc(-n2c(=O)c(NC(=O)c3ccc(OC(F)F)cc3)c(-c3c(F)cc(OC)cc3F)n2C)c1 (centres unmarked) [Example 381]
II = [2H]C([2H])([2H])Oc1cc(F)c(-c2c(NC(=O)c3ccc(OC(F)F)cc3)c(=O)n(-c3cccc(C(C)(C)O)n3)n2C)c(F)c1
III = COc1cc(F)c(-c2c(NC(=O)c3ccc(OC(F)F)cc3)c(=O)n(-c3nc(N4CCN5CCC[C@@H]5C4)ccc3C(F)(F)F)n2C)c(F)c1
IV = Cn1c(-c2ccc(OC(F)F)cc2)c(NC(=O)c2ccc(OC(F)F)cc2)c(=O)n1-c1ncccc1C(F)(F)F
Sort the molecules on pEC50; start with the lowest figure. List each label, following the requested order.
IV, II, I, III

----------
# TESTED_SYSTEM: UniProt P21462
# RUN_DESCRIPTION: FPR1 cyclic adenosine monophosphate (cAMP) assay
# RECORDED_CONDITIONS: CHO cells overexpressing human FPR1; forskolin 10 μM; inhibition of cAMP production; HTRF; read-out: hFPR1 cAMP2 EC50
# Description: N-formyl peptide receptors (FPRs) are a family of chemo attractant receptors that facilitate leukocyte response during inflammation. FPRs belong to the seven-transmembrane G protein-coupled receptor superfamily and are linked to inhibitory G-proteins (Gi). […] FPR2 and FPR1 Cyclic Adenosine Monophosphate (cAMP) Assays. […] The level of intracellular cAMP was determined using the HTRF HiRange cAMP assay reagent kit (Cisbio) according to manufacturer's instruction. […]
REPORTED_METRIC: EC50 (µM)

For orientation, consider the following solved cases.
MOLECULE	EC50, µM
COc1cc(F)c(-c2c(NC(=O)c3ccc(OC(F)F)cc3)c(=O)n(-c3ccc(C#N)cn3)n2C)c(F)c1	3.3
COc1cncc(-n2c(=O)c(NC(=O)c3ccc(OC(F)F)cc3)c(-c3c(F)cc(OC)cc3F)n2C)c1	2.2
CCc1cc(F)c(-c2c(NC(=O)c3ccc(OC(F)(F)F)cc3)c(=O)n(-c3cccc(C(C)(C)O)n3)n2C)c(F)c1	1.7

a = COc1cc(F)c(-c2c(NC(=O)c3ccc(OC(F)F)cc3)c(=O)n(-c3cccc(OC(F)F)c3)n2C)c(F)c1
b = [2H]C([2H])([2H])Oc1cc(F)c(-c2c(NC(=O)c3ccc(OC(F)F)cc3)c(=O)n(-c3cccc(C(C)(C)O)n3)n2C)c(F)c1
c = COc1cc(F)c(-c2c(NC(=O)c3ccc(OC(F)F)cc3)c(=O)n(-c3nc(N4CCN(S(C)(=O)=O)CC4)ccc3Cl)n2C)c(F)c1
d = COc1cc(F)c(-c2c(NC(=O)c3ccc(OC(F)(F)F)cc3)c(=O)n(-c3ncccc3F)n2C)c(F)c1
e = COc1cc(F)c(-c2c(NC(=O)c3ccc(OC(F)F)cc3)c(=O)n(-c3nc(N4CC[C@@H](CO)C4)ccc3C(F)(F)F)n2C)c(F)c1
Task field, ranking: reported EC50, descending order. List each label, following the requested order.
d, e, b, c, a
(d: 6.5 µM, e: 4.1 µM, b: 1.5 µM, c: 0.63 µM, a: 0.003 µM)

----------
# TESTED_SYSTEM: human FPR1 (Homo sapiens, UniProt P21462)
# Sequence (P21462 whole entry): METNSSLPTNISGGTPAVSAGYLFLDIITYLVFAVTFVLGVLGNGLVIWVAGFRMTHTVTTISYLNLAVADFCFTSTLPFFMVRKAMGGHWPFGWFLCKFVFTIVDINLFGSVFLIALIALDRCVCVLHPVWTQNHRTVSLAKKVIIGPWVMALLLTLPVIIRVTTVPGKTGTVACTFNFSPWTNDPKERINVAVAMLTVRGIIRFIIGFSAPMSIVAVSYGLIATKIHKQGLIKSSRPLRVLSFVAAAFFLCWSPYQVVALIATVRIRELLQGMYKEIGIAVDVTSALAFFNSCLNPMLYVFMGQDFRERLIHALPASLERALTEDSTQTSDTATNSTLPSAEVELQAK
# RUN_DESCRIPTION: FPR1 cyclic adenosine monophosphate (cAMP) assay
# RECORDED_CONDITIONS: CHO cells overexpressing human FPR1; forskolin 10 μM; inhibition of cAMP production; HTRF; read-out: hFPR1 cAMP2 EC50
REPORTED_METRIC: EC50

COMPOUND	TESTED_SYSTEM	EC50
COc1cc(C2CCN(C)CC2)nc(-n2c(=O)c(NC(=O)c3ccc(OC(F)F)cc3)c(-c3c(F)cc(OC)cc3F)n2C)c1	human FPR1 (Homo sapiens, UniProt P21462)	> 10 µM
COc1cc(F)c(-c2c(NC(=O)c3ccc(OC(F)F)cc3)c(=O)n(-c3ccccn3)n2C)c(F)c1	human FPR1 (Homo sapiens, UniProt P21462)	> 10 µM
COc1cc(F)c(-c2c(NC(=O)c3ccc(OC(F)F)cc3)c(=O)n(-c3nc(C(F)(F)F)ccc3OCC3CCOC3)n2C)c(F)c1 (stereo not drawn) [Example 369]	human FPR1 (Homo sapiens, UniProt P21462)	> 10 µM
COc1cc(OC2CCOC2)nc(-n2c(=O)c(NC(=O)c3ccc(OC(F)F)cc3)c(-c3c(F)cc(OC)cc3F)n2C)c1 (stereo not drawn) [Example 356]	human FPR1 (Homo sapiens, UniProt P21462)	> 10 µM

Quick note, EC50 for COc1cc(F)c(-c2c(NC(=O)c3ccc(OC(F)F)cc3)c(=O)n(-c3cccc(C(F)(F)F)n3)n2C)c(F)c1 landed at 4 µM

Quick note, EC50 for COc1cc(F)c(-c2c(NC(=O)c3ccc(Cl)cc3)c(=O)n(-c3nc(N4CC(OC(C)C)C4)ccc3C(F)(F)F)n2C)c(F)c1 landed at 3.3 µM

----------
# TESTED_SYSTEM: human FPR1 (Homo sapiens)
# RUN_DESCRIPTION: FPR1 cyclic adenosine monophosphate (cAMP) assay
# RECORDED_CONDITIONS: CHO cells overexpressing human FPR1; forskolin 10 μM; inhibition of cAMP production; HTRF; read-out: hFPR1 cAMP2 EC50
REPORTED_METRIC: EC50 (nM)

A = COc1cc(F)c(-c2c(NC(=O)c3ccc(OC(F)F)cc3)c(=O)n(-c3nc(C(F)(F)F)ccc3OC)n2C)c(F)c1
B = COc1cc(F)c(-c2c(NC(=O)c3ccc(OC(F)(F)F)cc3)c(=O)n(-c3ncccc3Cl)n2C)c(F)c1
Name the one with the greater EC50 value, either A or B as given. Label of pick, please.
B

----------
# TESTED_SYSTEM: human FPR2 (Homo sapiens, UniProt P25090)
# Sequence (P25090 whole entry): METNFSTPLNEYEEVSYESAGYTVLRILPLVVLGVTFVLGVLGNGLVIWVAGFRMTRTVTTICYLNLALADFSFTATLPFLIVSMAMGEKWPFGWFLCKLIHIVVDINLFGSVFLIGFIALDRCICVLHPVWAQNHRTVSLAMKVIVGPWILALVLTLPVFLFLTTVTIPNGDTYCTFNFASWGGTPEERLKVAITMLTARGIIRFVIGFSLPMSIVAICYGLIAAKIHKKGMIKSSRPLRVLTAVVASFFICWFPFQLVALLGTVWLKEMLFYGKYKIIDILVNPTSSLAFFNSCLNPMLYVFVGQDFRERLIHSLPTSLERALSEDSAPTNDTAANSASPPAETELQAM
# RUN_DESCRIPTION: FPR2 cyclic adenosine monophosphate (cAMP) assay
# RECORDED_CONDITIONS: CHO cells overexpressing human FPR2; forskolin 5 μM; inhibition of cAMP production; HTRF; read-out: hFPR2 cAMP2 EC50
REPORTED_METRIC: EC50 (nM)

For orientation, consider the following solved cases.
COMPOUND	REPORTED_METRIC	UNIT_SYMBOL	QUANTITATIVE_READOUT
COc1cc(F)c(-c2c(NC(=O)c3ccc(OC(F)F)cc3)c(=O)n(-c3nc(OCCO)ccc3C(F)(F)F)n2C)c(F)c1 [Example 285]	EC50	nM	2
COc1cc(F)c(-c2c(NC(=O)c3ccc(OC(F)(F)F)cc3)c(=O)n(-c3cccc(F)c3)n2C)c(F)c1 [Example 2]	EC50	nM	5
CCc1cccc(-n2c(=O)c(NC(=O)c3ccc(OC(F)F)cc3)c(-c3c(F)cc(OC)cc3F)n2C)n1 [Example 163]	EC50	nM	4
COCC(CO)Oc1cc(OC)cc(-n2c(=O)c(NC(=O)c3ccc(OC(F)F)cc3)c(-c3c(F)cc(OC)cc3F)n2C)n1 (centres unmarked) [Example 382]	EC50	nM	8
COc1cc(F)c(-c2c(NC(=O)c3ccc(OC(F)(F)F)cc3)c(=O)n(-c3ccccc3Cl)n2C)c(F)c1 [Example 172]	EC50	nM	13

I = COc1cc(F)c(-c2c(NC(=O)c3ccc(OC(F)F)cc3)c(=O)n(-c3nc(N4CC(C)(O)C4)ccc3C#N)n2C)c(F)c1 [Example 311]
II = CCOc1ccc(C(F)(F)F)c(-n2c(=O)c(NC(=O)c3ccc(OC(F)F)cc3)c(-c3c(F)cc(OC)cc3F)n2C)n1 [Example 286]
Hi there, can you help? I need to know whether I or II has lower measured EC50. Label of pick, please.
II
(II: 3 nM, I: 5 nM)

P = COc1cc(F)c(-c2c(NC(=O)c3ccc(OC(F)F)cc3)c(=O)n(-c3nc(N4CC(C)(O)C4)ccc3Cl)n2C)c(F)c1 [Example 307]
Q = COc1cc(N2CC[C@H](O)C2)nc(-n2c(=O)c(NC(=O)c3ccc(OC(F)F)cc3)c(-c3c(F)cc(OC)cc3F)n2C)c1 [Example 97]
R = CC(C)Oc1cc(OCCO)nc(-n2c(=O)c(NC(=O)c3ccc(OC(F)(F)F)cc3)c(-c3c(F)cc(Cl)cc3F)n2C)c1 [Example 398]
S = COc1cc(F)c(-c2c(NC(=O)c3ccc(OC(F)F)cc3)c(=O)n(-c3nc(NCC(=O)N(C)C)ccc3C(F)(F)F)n2C)c(F)c1 [Example 252]
Sort (4 compounds) by EC50: min first. List each label, following the requested order.
Q, P, S, R
(Q: 3 nM, P: 5 nM, S: 12 nM, R: 24 nM)

A = COc1cc(F)c(-c2c(NC(=O)c3ccc(OC(F)F)cc3)c(=O)n(-c3nc(N4CC(OC(C)C)C4)ccc3C(F)(F)F)n2C)c(F)c1 [Example 140]
B = CCc1ccc(N2CC(C)(O)C2)nc1-n1c(=O)c(NC(=O)c2ccc(OC(F)F)cc2)c(-c2c(F)cc(OC)cc2F)n1C [Example 310]
C = COc1cc(F)c(-c2c(NC(=O)c3ccc(OC(F)F)cc3)c(=O)n(-c3cccc(-c4ccccc4)n3)n2C)c(F)c1 [Example 72]
Task field, ranking: reported EC50, descending order. List each label, following the requested order.
B, A, C

These data points were gathered from patent US12577206B2.
